- Test system: NCI-H23
- Assay name: NCI tumour cell line growth inhibition, 48 h
The source made the active and inactive calls. No stated cut-off is given here; in the data, active = GI50 up to about 1.1 µM and inactive = higher. Non-standard residues stand in square brackets, D forms with d. Residues, ends and D or L forms follow the SMILES beside them. ξ: configuration not given here. Pentanoyl(2-O,4-OH,5-Cl) = O=C(O)C(O)CC(O)CCl; Ile(3ξ) = CCC(C)[C@H](N)C(=O)O; NMeV = CN[C@H](C(=O)O)C(C)C; NMeA = CN[C@@H](C)C(=O)O; βAla = NCCC(=O)O
Classes used: 1 (yes) = active, 0 (no) = inactive

CN1C/C(=C\c2ccc(Cl)cc2)C(=O)/C(=C/c2ccc(Cl)cc2)C1: 0 (no)
N[C@H](C(=O)O)[C@@H]1CC(Br)=NO1: 0 (no)
CC(C)SC(NC(=O)C1C(C)(C)CCC1(C)C)C(=O)O (configuration not stated): 0 (no)
CCC1(O)CC(OC2CC(N(C)C)C(OC3CC(O)C(OC4OC(C)C(=O)C=C4N)C(C)O3)C(C)O2)c2c(O)c3c(c(O)c2C1C(=O)OC)C(=O)c1cccc(O)c1C3=O (configuration not stated): 1 (yes)
NC1=NN(c2ccccc2)C(=O)C1C(=O)C(=O)NC1C2CC3CC(C2)CC1C3 (configuration not stated): 0 (no)
O=C1NC(=O)C(CCO)(c2ccccc2)C(=O)N1: 0 (no)
CCOCC(=O)N[C@H]1CCc2cc(OC)c(OC)c(OC)c2-c2ccc(SC)c(=O)cc21: 1 (yes)
O=c1c2cc(S(=O)(=O)Nc3ccc(Cl)cc3Cl)ccc2ncn1NS(=O)(=O)c1cccc2ccccc12: 0 (no)
C[C@]12CCc3nonc3C1CC[C@@H]1C2CC[C@]2(C)C(=O)/C(=N\O)CC12 (some centres not stated): 0 (no)
c1ccc2c(c1)CC1COc3ccccc3C1O2 (configuration not stated): 0 (no)
COC1OC(C)C(NC(=O)OCC(Cl)(Cl)Cl)C2OC(C)(C)OC12 (configuration not stated): 0 (no)
C/C(=N\Nc1nc2ccccc2s1)c1ccncn1: 1 (yes)
CCOC(=O)c1c(N)sc2c1C(C(=O)OCC)CC2 (configuration not stated): 0 (no)
O=S(=O)(Sc1ccc(Cl)cc1)c1ccc(Cl)cc1: 0 (no)
O=C1C(C(c2ccccc2)N2CCOCC2)=C(O)C(c2ccccc2)N1c1ccccc1 (configuration not stated): 0 (no)
NC(=O)Nc1c(Cl)cc(S(N)(=O)=O)cc1Cl: 0 (no)
O=C1c2ccccc2C(=O)N1CCN(CCN1C(=O)c2ccccc2C1=O)Cc1ccccc1: 0 (no)
CCC(C)[C@@H]1NC(=O)[C@@H]2CCCN2C(=O)C(CC(O)CCl)OC(=O)CCNC(=O)[C@H](C)N(C)C(=O)[C@H](C(C)C)N(C)C1=O (some centres not stated) (cyclo([Ile(3ξ)][NMeV][NMeA][βAla][Pentanoyl(2-O,4-OH,5-Cl)]P)): 0 (no)
CC(=O)OC(/C=C/c1ccccc1)=C(OC(C)C)/C1=C(\c2ccccc2)SCCCSC1=O: 0 (no)
Cc1c(C(=O)O)n(C)c(=O)n(C)c1=O: 0 (no)
N/C=N/S(=O)(=O)c1ccc(NC(=O)COC(=O)c2cccc3c(=O)c4ccccc4[nH]c23)cc1: 0 (no)
O=C(O/N=C1/CCC/C1=C\c1ccccc1)c1ccc([N+](=O)[O-])cc1: 0 (no)
CN1CC[C@]2(C)c3c(O)cccc3CC3CCCC1C32C (some centres not stated): 0 (no)
COc1ccc2c(c1)C(=O)CC(N)C2 (configuration not stated): 0 (no)
Cc1ccc(C(=O)NN=C(/N=N/c2cccc(C)c2)c2ccc(N(C)C)cc2)cc1: 0 (no)
O/N=C1\CSc2ccccc2C1: 0 (no)
Cn1[nH]nn/c1=N\N=C\c1ccccc1: 0 (no)
